System: Hepatotoxicity
Experiment: FDA HLAED, gamma-glutamyl transferase (GGT) increase; also: reference of the scale not given here
Conditions: human
compounds and their reported GGT Increase - Index Value
recorded.metric: GGT Increase - Index Value

compound	recorded.metric	measured.value
CC(S)C(=O)NCC(=O)O (stereo not drawn) [TIOPRONIN]	GGT Increase - Index Value	0
C[C@H](CCC(=O)O)[C@H]1CC[C@H]2[C@@H]3[C@@H](O)C[C@@H]4C[C@H](O)CC[C@]4(C)[C@H]3CC[C@]12C [URSODIOL]	GGT Increase - Index Value	4.8
Oc1ncnc2[nH]ncc12 [ALLOPURINOL]	GGT Increase - Index Value	9.4
COc1ccc2[nH]c([S+]([O-])Cc3ncc(C)c(OC)c3C)nc2c1 (stereo not drawn) [OMEPRAZOLE]	GGT Increase - Index Value	0.8
CN1CCCC(n2nc(Cc3ccc(Cl)cc3)c3ccccc3c2=O)CC1 (stereo not drawn) [AZELASTINE]	GGT Increase - Index Value	0
Clc1ccc(CCC(Cn2ccnc2)Sc2c(Cl)cccc2Cl)cc1 (stereo not drawn) [BUTOCONAZOLE]	GGT Increase - Index Value	0
CCc1nn(CCCN2CCN(c3cccc(Cl)c3)CC2)c(=O)n1CCOc1ccccc1 [NEFAZODONE]	GGT Increase - Index Value	1.1
O=C(O)c1cc(/N=N/c2ccc(O)c(C(=O)O)c2)ccc1O [OLSALAZINE]	GGT Increase - Index Value	0
CO[C@]12CC[C@@]3(C[C@@H]1[C@](C)(O)C(C)(C)C)[C@H]1Cc4ccc(O)c5c4[C@@]3(CCN1CC1CC1)[C@H]2O5 [BUPRENORPHINE]	GGT Increase - Index Value	0
Oc1ccc2c3c1O[C@H]1[C@@H](O)CC[C@@]4(O)[C@@H](C2)N(CC2CCC2)CC[C@]314 [NALBUPHINE]	GGT Increase - Index Value	0
CC(C)(C)NC[C@H](O)COc1nsnc1N1CCOCC1 [TIMOLOL]	GGT Increase - Index Value	0
Nc1ncnc2c1ncn2[C@@H]1O[C@H](CO)[C@@H](O)[C@H]1O [ADENOSINE]	GGT Increase - Index Value	0
CNS(=O)(=O)Cc1ccc2[nH]cc(CCN(C)C)c2c1	GGT Increase - Index Value	0.1
CCCCC(C)(O)C/C=C/[C@H]1[C@H](O)CC(=O)[C@@H]1CCCCCCC(=O)OC (stereo partly drawn) [MISOPROSTOL]	GGT Increase - Index Value	0.5
CC1(C)C(C=C(Cl)Cl)C1C(=O)OCc1cccc(Oc2ccccc2)c1 (stereo not drawn) [PERMETHRIN]	GGT Increase - Index Value	0
COCC1=C(C(=O)OC(C)OC(=O)OC(C)C)N2C(=O)[C@@H](NC(=O)/C(=N\OC)c3csc(N)n3)[C@H]2SC1 (stereo partly drawn) [CEFPODOXIME PROXETIL]	GGT Increase - Index Value	0.5
Clc1ccccc1CN1CCc2sccc2C1 [TICLOPIDINE]	GGT Increase - Index Value	0

---

Tested on: Hepatotoxicity
Assay: FDA HLAED, lactate dehydrogenase (LDH) increase
Details: human
recorded.metric: LDH Increase - Index Value

> print(dat)
                                   molecule  target.or.system  measured.value
1  C=C1/C(=C\C=C2/CCC[C@]3(C)[C@@H]([C@H](C)/C=C/[C@@H](O)C4CC4)CC[C@@H]23)C[C@@H](O)C[C@@H]1O [CALCIPOTRIENE]    Hepatotoxicity               0
2  CC1=C(C(=O)O)N2C(=O)[C@@H](NC(=O)[C@H](N)c3ccc(O)cc3)[C@H]2SC1 [CEFADROXIL]    Hepatotoxicity               0
3  CCOC(=O)[C@H](CCc1ccccc1)N[C@@H](C)C(=O)N1Cc2cc(OC)c(OC)cc2C[C@H]1C(=O)O [MOEXIPRIL]    Hepatotoxicity               0
4  NCCCC[C@H](N[C@@H](CCc1ccccc1)C(=O)O)C(=O)N1CCC[C@H]1C(=O)O [LISINOPRIL ANHYDROUS]    Hepatotoxicity             1.2
5  O=C(O)c1cc(-c2ccc(F)cc2F)ccc1O [DIFLUNISAL]    Hepatotoxicity               0
6  C=C1CC[C@@]2(O)[C@H]3Cc4ccc(O)c5c4[C@@]2(CCN3CC2CC2)[C@H]1O5    Hepatotoxicity               0
7  O=c1[nH]cnc2c1ncn2[C@H]1CC[C@@H](CO)O1 [DIDANOSINE]    Hepatotoxicity               3
8  CCN[C@@H]1C[C@H](N)[C@@H](O[C@H]2OC(CN)=CC[C@H]2N)[C@H](O)[C@H]1O[C@H]1OC[C@](C)(O)[C@H](NC)[C@H]1O [NETILMICIN]    Hepatotoxicity               0

Where do these numbers come from? They come from ChEMBL document CHEMBL1697781.
